test system: COLO 205; assay: NCI tumour cell line growth inhibition, 48 h
Active and inactive are the calls of the source. Rule as the data show it: active = GI50 up to about 1.1 µM and inactive = higher.
Can you answer with just one of these options? class 1 for active, class 0 for inactive

Worked examples, 5 molecules total:
molecule	discrete-label
CC1CC[C@@]2(OC1)OC1C[C@H]3[C@@H]4CCC5CC(O)CC[C@]5(C)[C@H]4C/C(=N\N(C)C)[C@]3(C)C1[C@@H]2C (stereo not given in full)	class 0
O=C(CC(C(=O)c1ccsc1)c1cccs1)c1ccccc1 (stereo not given)	class 0
Clc1nc(-c2ccccc2)nc(Cl)c1Cl	class 0
COc1ccc(OC)c(CC(=O)c2ccc(O)c(C(=O)NCCc3ccc(F)cc3)c2)c1	class 0
CCc1ccc(/C=C\c2cc(OC)c(OC)c(OC)c2)cc1	class 1

Could you kindly confirm the outcome this assay logged for COc1ccc(NC(=O)CC(=O)N2N=C(N3CCCCC3)CC2c2ccccc2)cc1 (stereo not given) ?
class 0

Could you kindly confirm the outcome this assay logged for CC(=O)OCC1OC(n2cc(I)c(=O)[nH]c2=O)C(OC(C)=O)C(OC(C)=O)C1OC(C)=O (stereo not given) ?
class 0

Could you kindly confirm the outcome this assay logged for COC1C=COC2(C)Oc3c(C)c(O)c4c(c3C2=O)/C(=N/C2CCC(O)OC2C)C=C(NC(=O)/C(C)=C\C(=O)C2CC2C(O)C(C)C(O)C(C)C(OC(C)=O)C1C)C4=O (stereo not given) ?
class 0

Could you kindly confirm the outcome this assay logged for COc1ccc(C2=Nc3c(nc(OC)[nH]c3=O)NC(c3ccccc3)C2)cc1 (stereo not given) ?
class 0

Could you kindly confirm the outcome this assay logged for CNC(=S)/C(=N\Nc1[nH]cnc1C(N)=O)C(N)=S ?
class 0

Could you kindly confirm the outcome this assay logged for Cc1c(/N=C\c2ccc(N(CCC#N)CCC#N)cc2)c(=O)n(-c2ccccc2)n1C ?
class 0

Could you kindly confirm the outcome this assay logged for C#CC(O)/C=C/CCCCCCC#CC/C=C\CC#CCCCCCC/C=C/C(O)C#C (stereo not given) ?
class 0

Could you kindly confirm the outcome this assay logged for C=CCCC1CCCCNC1=S (stereo not given) ?
class 0

Could you kindly confirm the outcome this assay logged for N#Cc1cnc(N)nc1NCC1(CO)CC(CCc2ccccc2)C1 (stereo not given) ?
class 0

Could you kindly confirm the outcome this assay logged for O=C1NC2(NC(=O)C1=O)Nc1ccccc1S2 ?
class 0

Could you kindly confirm the outcome this assay logged for N#CC(C#N)=CNC(N)=S ?
class 0

Could you kindly confirm the outcome this assay logged for C1CCC2(CC1)O[C@@H]1[C@@H](O2)[C@@H](O[C@H]2O[C@@H]3COC4(CCCCC4)O[C@H]3[C@@H]3OC4(CCCCC4)O[C@@H]23)O[C@@H]2COC3(CCCCC3)O[C@@H]12 ?
class 0

Could you kindly confirm the outcome this assay logged for N#CC(=N)c1ncn(-c2ccccc2N)c1N ?
class 0

Could you kindly confirm the outcome this assay logged for Cc1ccc(NC(=O)CC(=O)N2N=C(N3CCCCC3)CC2c2ccccc2)cc1 (stereo not given) ?
class 0

Could you kindly confirm the outcome this assay logged for N#Cc1c(N)nc2[nH]nc(N)c2c1-c1ccccc1 ?
class 0
